experiment: PAMPA permeability; assay type: in vitro ADME
Listed below: PAMPA Permeability values for each entry.
Respond numerically; units are ×10⁻⁶ cm/s and should not be typed.

Worked set:
compound="CCN(CC)Cc1ccc(-c2ccc3ncc4ccc(=O)n(-c5ccc(C(=O)NC6CC6)cc5)c4c3c2)cc1 [Compound 243]" assayresult=382
compound="O=C(c1ccc(-n2c(=O)ccc3cnc4ccc(-c5ccc(Cl)cc5)cc4c32)cc1)N1CCC1 [Compound 108]" assayresult=119
compound="CN(C)Cc1ccc(-c2ccc3ncc4ccc(=O)n(-c5ccc(C(=O)NC6CC6)cc5)c4c3c2)cc1 [Compound 163]" assayresult=232

Request: // query PAMPA Permeability value for entry CN(C)CCc1ccc(-c2ccc3ncc4ccc(=O)n(-c5ccc(C(=O)NC6CC6)cc5)c4c3c2)cc1 [Compound 241]
Response: 18.6

Request: Thanks! And Cc1cc(C(=O)NCCCN(C)C)ccc1-n1c(=O)ccc2cnc3ccc(-c4ccc(Cl)cc4)cc3c21 [Compound 275] ?
Response: 427

Request: Thanks! And CCN(CC)CCNC(=O)c1ccc(-n2c(=O)ccc3cnc4ccc(-c5ccc(Cl)cc5)cc4c32)cc1 [Compound 284] ?
Response: 281

Request: Thanks! And O=C(NC1CNC1)c1ccc(-n2c(=O)ccc3cnc4ccc(-c5ccc(Cl)cc5)cc4c32)cc1 [Compound 232] ?
Response: 7.6

Request: Thanks! And O=C(c1ccc(-n2c(=O)ccc3cnc4ccc(-c5ccc(Cl)cc5)cc4c32)cc1C(F)(F)F)N1CCOCC1 [Compound 126] ?
Response: 1240

Request: Thanks! And Cc1cc(C(=O)NC2CC2)ccc1-n1c(=O)ccc2cnc3ccc(-c4ccc(Cl)cc4)cc3c21 [Compound 88] ?
Response: 117

Request: Thanks! And CN(C)Cc1ccc(-c2ccc3ncc4ccc(=O)n(-c5ccc(C(=O)N6CC7CC6CN7C)cc5)c4c3c2)cc1 (centres unmarked) [Compound 165] ?
Response: 1.8

Request: Thanks! And CN(C)CC#Cc1ccc2ncc3ccc(=O)n(-c4ccc(C(=O)N5CCOCC5)cc4)c3c2c1 [Compound 218] ?
Response: 100

* * *

Listed below: Microsomal Stability (rat) T1/2 values for each entry.
assay: Microsomal stability (rat); format: in vitro ADME; settings: rat microsomes

Worked set:
compound="N#Cc1cc(NC(=O)c2ccc(-n3c(=O)ccc4cnc5ccc(-c6ccc(Cl)cc6)cc5c43)cc2)ccc1F [Compound 133]" assayresult=">30.0 min"
compound="NS(=O)(=O)c1ccc(-n2c(=O)ccc3cnc4ccc(-c5ccc(Cl)cc5)cc4c32)cc1 [Compound 40]" assayresult=">30.0 min"

Request: // query Microsomal Stability (rat) T1/2 value for entry NCCc1ccc(-c2ccc3ncc4ccc(=O)n(-c5ccc(C(=O)N6CCOCC6)cc5)c4c3c2)cc1 [Compound 183]
Response: >30 min

* * *

Listed below: Sol @ pH 7.4 values for each entry.
assay: Solubility at pH 7.4; format: physicochemical

molecule="O=C(c1ccc(-n2c(=O)ccc3cnc4ccc(-c5ccc(Cl)c(O)c5)cc4c32)cc1)N1CCOCC1 [Compound 114]" assayresult="<1.0 ug/mL"
molecule="O=C(c1ccc(-n2c(=O)ccc3cnc4ccc(-c5ccc(Cl)cc5)cc4c32)cc1Cl)N1CCOCC1 [Compound 116]" assayresult="<1.0 ug/mL"
molecule="O=C(NC1CCCC1)c1ccc(-n2c(=O)ccc3cnc4ccc(-c5ccc(Cl)cc5)cc4c32)cc1 [Compound 156]" assayresult="<1.0 ug/mL"
molecule="CN1CC2CC1CN2C(=O)c1ccc(-n2c(=O)ccc3cnc4ccc(-c5ccc(Cl)cc5)cc4c32)cc1 (stereo not drawn) [Compound 140]" assayresult=">77.0 ug/mL"
molecule="COc1cc(-c2ccc3ncc4c(c3c2)n(-c2cccc(C#N)c2)c(=O)n4C)ccc1Cl [Compound 403]" assayresult="3.1 ug/mL"
molecule="O=C(NCCCN1CCCCC1)c1ccc(-n2c(=O)ccc3cnc4ccc(-c5ccc(Cl)cc5)cc4c32)cc1 [Compound 260]" assayresult="0 ug/mL"
molecule="Cc1cc(C(=O)NCCN2CCC2)ccc1-n1c(=O)ccc2cnc3ccc(-c4ccc(Cl)cc4)cc3c21 [Compound 293]" assayresult="0 ug/mL"
molecule="CC1CC1NC(=O)c1ccc(-n2c(=O)ccc3cnc4ccc(-c5ccc(Cl)cc5)cc4c32)cc1 (stereo not drawn) [Compound 176]" assayresult="<0.10 ug/mL"

Request: // query Sol @ pH 7.4 value for entry Cc1cc(-c2ccc3ncc4ccc(=O)n(-c5ccc(C(=O)N6CCOCC6)cc5)c4c3c2)ccc1Cl [Compound 144]
Response: <1.0 ug/mL
